Target: hT1R2/hT1R3 (Homo sapiens, UniProt Q7RTX0+Q8TE23, C757R)
Construct: expressed in transfected cells; host or cells: HEK293E
Sequence (Q8TE23 20-839): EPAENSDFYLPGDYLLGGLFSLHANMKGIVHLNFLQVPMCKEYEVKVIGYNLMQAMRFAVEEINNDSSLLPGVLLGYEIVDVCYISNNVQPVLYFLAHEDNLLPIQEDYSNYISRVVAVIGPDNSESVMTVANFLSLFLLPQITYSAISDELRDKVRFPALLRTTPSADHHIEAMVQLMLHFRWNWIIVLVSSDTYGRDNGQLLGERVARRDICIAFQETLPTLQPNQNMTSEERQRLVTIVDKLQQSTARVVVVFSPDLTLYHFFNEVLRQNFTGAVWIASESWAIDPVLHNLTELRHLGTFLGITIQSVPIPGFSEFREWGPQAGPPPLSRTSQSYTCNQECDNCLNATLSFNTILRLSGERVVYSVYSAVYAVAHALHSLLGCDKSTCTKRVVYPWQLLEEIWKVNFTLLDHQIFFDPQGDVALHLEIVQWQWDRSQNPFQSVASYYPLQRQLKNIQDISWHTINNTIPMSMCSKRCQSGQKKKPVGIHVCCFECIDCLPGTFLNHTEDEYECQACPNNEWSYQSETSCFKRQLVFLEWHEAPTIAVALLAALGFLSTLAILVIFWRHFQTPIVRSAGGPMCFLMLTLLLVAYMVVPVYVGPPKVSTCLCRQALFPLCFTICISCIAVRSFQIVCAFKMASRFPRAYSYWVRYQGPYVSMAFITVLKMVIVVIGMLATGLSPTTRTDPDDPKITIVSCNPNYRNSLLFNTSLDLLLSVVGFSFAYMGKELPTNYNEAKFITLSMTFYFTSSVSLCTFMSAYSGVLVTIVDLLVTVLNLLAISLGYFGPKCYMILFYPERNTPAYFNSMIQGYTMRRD
Sequence (Q7RTX0 21-852 C757R): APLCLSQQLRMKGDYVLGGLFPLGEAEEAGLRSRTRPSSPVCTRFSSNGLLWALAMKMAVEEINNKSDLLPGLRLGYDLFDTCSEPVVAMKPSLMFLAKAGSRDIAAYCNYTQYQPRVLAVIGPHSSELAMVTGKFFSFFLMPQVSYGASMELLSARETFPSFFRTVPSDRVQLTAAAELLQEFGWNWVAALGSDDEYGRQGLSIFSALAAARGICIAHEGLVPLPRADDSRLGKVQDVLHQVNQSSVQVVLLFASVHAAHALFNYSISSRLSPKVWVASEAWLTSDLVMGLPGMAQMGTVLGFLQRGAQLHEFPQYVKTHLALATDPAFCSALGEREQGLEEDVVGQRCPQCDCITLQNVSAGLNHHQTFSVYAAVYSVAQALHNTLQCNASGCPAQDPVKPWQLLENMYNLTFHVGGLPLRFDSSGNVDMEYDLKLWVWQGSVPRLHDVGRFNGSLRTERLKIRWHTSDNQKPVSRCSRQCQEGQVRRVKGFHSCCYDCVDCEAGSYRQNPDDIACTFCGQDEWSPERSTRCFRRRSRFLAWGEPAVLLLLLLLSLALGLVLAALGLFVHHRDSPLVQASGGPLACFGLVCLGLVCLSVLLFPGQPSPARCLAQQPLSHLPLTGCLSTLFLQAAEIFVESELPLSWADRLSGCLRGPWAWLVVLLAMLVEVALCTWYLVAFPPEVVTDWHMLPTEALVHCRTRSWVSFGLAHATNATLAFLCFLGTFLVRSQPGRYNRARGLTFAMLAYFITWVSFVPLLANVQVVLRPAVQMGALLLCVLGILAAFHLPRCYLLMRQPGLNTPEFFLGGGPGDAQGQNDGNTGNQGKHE
Assay: Intracellular calcium assay (ΔF/F, S/N ratio) in HEK293E cells expressing hT1R2 and hT1R3 with Gα15-trans48LD;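 also: fluorescence read over 120 s after adding sweet stimulant across several concentrations, S/N taken as highest over lowest ΔF/F, higher meaning more sensitive detection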
Assay type: cell-based
Conditions: Table 6, genes hT2/hT3 (hT1R2, hT1Rm3)
Residues, ends and D or L forms follow the SMILES beside them.
Quantity measured: S/N
One number for each entry.

Some solved entries appear below for comparison.
- Molecule: "COC(=O)[C@H](Cc1ccccc1)NC(=O)[C@@H](N)CC(=O)O [Aspartame, aspartame] (HELM PEPTIDE1{D.F.[CO[*:1]]}$$$$V2.0)"
  S/N: 1.6
- Molecule: "CC1=CC(=O)NS(=O)(=O)O1"
  S/N: 1.9

For each listed entry, give its S/N.
1. OC[C@H]1O[C@H](O[C@]2(CCl)O[C@H](CCl)[C@@H](O)[C@@H]2O)[C@H](O)[C@@H](O)[C@H]1Cl
2. COC(=O)[C@H](Cc1ccccc1)NC(=O)[C@H](CC(=O)O)NCCCc1ccc(OC)c(O)c1

1: 3.3; 2: 3.2
